assay.comment: DDI study: pharmacokinetics of zanubrutinib in rats alone or with fluconazole / isavuconazole
Assay type: in vivo, Sprague–Dawley (SD) rats
stated.conditions: Sprague-Dawley, rat, plasma, po, 30 mg/kg, rats, zanubrutinib 30 mg/kg gavage; Group B: 20 mg/kg isavuconazole; n = 6, mean ± SD; read-out: Vz/F
Text: The separation procedures were processed using a Shim-pack velox C18 column (2.1 × 50 mm, 2.7 μm) at 40 degrees Celsius. The mobile phases were 0.1% formic acid-water and methanol. […] Triple quadrupole mass spectrometry (Shimadzu Corp., Tokyo, Japan) was utilized for sample detection. […] The first and second signal strength product ions were applied to quantitation and qualification, respectively, to ensure the specificity of the detection. […]
property.measured: Vd/F
The answer consists of two parts: a number and, after it, its unit.

The reported Vd/F of the compound C=CC(=O)N1CCC([C@@H]2CCNc3c(C(N)=O)c(-c4ccc(Oc5ccccc5)cc4)nn32)CC1 [zanubrutinib] was 49 L/kg
